test system: MOLT-4; assay: NCI tumour cell line growth inhibition, 48 h
Calls of active or inactive are those of the source. Rule as the data show it: active = GI50 up to about 1.1 µM and inactive = higher.
Readout: GI50

// GI50 value for `COc1ccc(C2=C(N)c3c(Cl)cccc3C2=O)cc1` : 95.1 µM (inactive)

# GI50 (molecule: CC(C)(C)c1ccc(C(C)(C)C)c(N2C(=O)C3ON=C(c4ccc([N+](=O)[O-])cc4)C3C2=O)c1 (stereo not drawn) ) is > 25 µM (inactive)

Item: `O=C(NCCCl)O/N=C/c1cccnc1` | GI50: > 100 µM (inactive)

For `N#C/C(=C1/c2cc([N+](=O)[O-])ccc2-c2c1cc([N+](=O)[O-])cc2[N+](=O)[O-])N1CCCCC1` the molecule record lists GI50 as > 100 µM (inactive)

Per the records, this molecule ( CC1OCC2OC(C)OC(C3C4=C(CC(C)(C)CC4=O)OC4=C3C(=O)CC(C)(C)C4)C2O1 (stereo not drawn) ) has GI50 equal to > 100 µM (inactive)

// sample `Oc1c(N2CCOCC2)cc(-c2cc(N3CCOCC3)c(O)c3ccccc23)c2ccccc12` , its GI50 was 1.71 µM (inactive)

// `COc1cc(CN[C@H]2CCc3cc(OC)c(OC)c(OC)c3-c3ccc(SC)c(=O)cc32)cc(OC)c1` : GI50 value = 0.452 µM (active)

More entries:
Just so you know, measured GI50 for `CC1(C)CCC2=C(O1)c1ccccc1C(=O)C2=O` came out at 0.708 µM (active)

###

tested on: HT-29; assay: NCI tumour cell line growth inhibition, 48 h
The source made the active and inactive calls. No stated cut-off is given here; in the data, active = GI50 up to about 1.1 µM and inactive = higher.
Readout: GI50

Recorded results for 5 compounds are shown here.
Quick note, GI50 for O=C1c2ccccc2-n2nnnc2C2CSCN12 (stereo unspecified) landed at > 100 µM (inactive)

The compound listed as N#CC(C(=O)O)C(c1c(Cl)cccc1Cl)C(C#N)C(=O)O (stereo unspecified) shows GI50 equal to > 100 µM (inactive)

N#CC1C(=O)C(=O)N(c2ccccc2)C1=O (stereo unspecified) yielded GI50 of > 100 µM (inactive)

Field GI50 (entry `C/C(=N\Nc1ccccc1Br)c1cccc(/C(C)=N/Nc2ccccc2Br)n1` ) reads > 100 µM (inactive)

Query `COc1cc(OC)cc(Oc2nc3ccc(C(F)(F)F)cc3nc2-c2ccccc2)c1` yields GI50 of 60 µM (inactive)

Further cases:
get_value(item= O=[N+]([O-])c1ccc(C(Cl)C(Cl)c2ccc(C(Cl)C(Cl)c3ccc([N+](=O)[O-])cc3[N+](=O)[O-])cc2)c([N+](=O)[O-])c1 (stereo unspecified) , readout=GI50) returns 1.76 µM (inactive)

Entry `OC[P+](CO)(CO)C12CC3CC(CC(C3)C1)C2` — recorded GI50 = 48.5 µM (inactive)

Kindly note the recorded GI50 for CC(=O)OC1COC(N2CCc3ccccc32)C(OC(C)=O)C1OC(C)=O (stereo unspecified) , which is > 100 µM (inactive)

get_value(item= CC(=O)Nc1ccc(C(=O)NN2C(=O)C(Cl)C2c2cccc([N+](=O)[O-])c2)cc1 (stereo unspecified) , readout=GI50) returns > 100 µM (inactive)

// field: GI50; key: CCOP(=O)(OCC)C(Nc1ccc(C(=O)O)cc1)c1ccc(C(Nc2ccc(C(=O)O)cc2)P(=O)(OCC)OCC)cc1 (stereo unspecified) ; value = > 100 µM (inactive)

Measured GI50 of `COc1cc(C(=C2SCCS2)c2nccc3cc(OC)c(OC)cc23)c([N+](=O)[O-])cc1OC` : 58.9 µM (inactive)
